MEASUREMENT TARGET: Solute carrier family 12 member 5 (Homo sapiens)
Sequence (Q9H2X9 whole entry): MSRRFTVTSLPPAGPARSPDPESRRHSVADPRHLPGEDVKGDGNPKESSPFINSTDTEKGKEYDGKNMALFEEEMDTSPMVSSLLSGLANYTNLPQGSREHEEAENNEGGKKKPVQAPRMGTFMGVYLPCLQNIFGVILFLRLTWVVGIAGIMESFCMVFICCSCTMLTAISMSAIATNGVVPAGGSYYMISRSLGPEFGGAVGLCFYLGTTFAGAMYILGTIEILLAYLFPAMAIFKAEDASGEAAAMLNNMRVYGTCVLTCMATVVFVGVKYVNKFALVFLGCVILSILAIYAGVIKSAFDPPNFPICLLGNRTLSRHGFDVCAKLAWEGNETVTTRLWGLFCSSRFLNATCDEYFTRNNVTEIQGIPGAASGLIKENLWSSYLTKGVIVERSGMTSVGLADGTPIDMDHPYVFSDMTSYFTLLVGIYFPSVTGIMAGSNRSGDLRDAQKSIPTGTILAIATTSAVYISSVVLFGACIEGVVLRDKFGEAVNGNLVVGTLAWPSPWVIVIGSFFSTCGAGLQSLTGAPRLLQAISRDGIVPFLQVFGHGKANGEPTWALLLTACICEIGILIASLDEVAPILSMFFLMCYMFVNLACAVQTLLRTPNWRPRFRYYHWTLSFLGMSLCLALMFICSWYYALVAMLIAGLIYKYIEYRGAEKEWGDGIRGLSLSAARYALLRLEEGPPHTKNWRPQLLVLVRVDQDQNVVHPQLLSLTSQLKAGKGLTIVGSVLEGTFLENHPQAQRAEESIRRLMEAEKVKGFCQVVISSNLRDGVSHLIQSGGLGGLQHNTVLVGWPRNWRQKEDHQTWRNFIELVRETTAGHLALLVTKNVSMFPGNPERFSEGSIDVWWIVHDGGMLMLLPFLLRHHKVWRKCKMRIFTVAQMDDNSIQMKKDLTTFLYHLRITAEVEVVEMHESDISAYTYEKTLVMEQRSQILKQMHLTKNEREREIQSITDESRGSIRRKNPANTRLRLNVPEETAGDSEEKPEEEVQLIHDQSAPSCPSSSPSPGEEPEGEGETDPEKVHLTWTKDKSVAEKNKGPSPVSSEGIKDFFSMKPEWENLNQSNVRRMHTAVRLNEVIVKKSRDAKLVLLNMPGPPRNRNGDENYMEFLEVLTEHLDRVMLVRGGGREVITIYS
ASSAY PROCEDURE: concentration-response of KCC2 transport modulators – cell-based, HEK293 KCC2, FluoZin-2 fluorescence, dose response (AID 1736)
Non-standard residues stand in square brackets, D forms with d. Residues, ends and D or L forms follow the SMILES beside them. ξ: configuration not given here. *: point of attachment. ξF = NC(Cc1ccccc1)C(=O)O; Cbz = O=C(OCc1ccccc1)*
RECORDED ENDPOINT: EC50

- MOLECULE: "COc1ccccc1N1CCN(C(=S)NC(=O)/C=C/c2ccccc2)CC1"
  DATA VALUE: "20 µM"
- MOLECULE: "O=C(O)/C=C/c1cn(Cc2ccccc2Cl)nc1-c1ccccc1"
  DATA VALUE: "3.26 µM"
- MOLECULE: "CC1Cc2ccccc2N1C(=O)c1ccc(N2CCCCC2)c([N+](=O)[O-])c1 (stereo unspecified)"
  DATA VALUE: "0.92 µM"
- MOLECULE: "Cc1ccccc1-c1nc(C[S+]([O-])CC(=O)NCc2ccccc2)c(C)o1 (stereo unspecified)"
  DATA VALUE: "7.15 µM"
- MOLECULE: "c1ccc(-c2csc(N=NCc3ccco3)n2)cc1"
  DATA VALUE: "15 µM"
- MOLECULE: "CC[C@H](CO)Nc1nc(Nc2cccc(Cl)c2)c2ncn(C(C)C)c2n1"
  DATA VALUE: "9.54 µM"
- MOLECULE: "O=C(Nc1ccc2oc(-c3ccccc3F)nc2c1)c1ccco1"
  DATA VALUE: "66.5 µM"
- MOLECULE: "Cc1ccc(/C=C2/Sc3ccccc3N(CC(=O)NCCCOC(C)C)C2=O)cc1"
  DATA VALUE: "964 µM"
- MOLECULE: "CCOC(=O)CNC(=O)C(Cc1ccccc1)NC(=O)OCc1ccccc1 (stereo unspecified) (Cbz-[ξF]-Gly-OEt)"
  DATA VALUE: "3.01 µM"
- MOLECULE: "O=[N+]([O-])c1ccc(CSc2nnc(SCc3ccccc3)s2)cc1"
  DATA VALUE: "2.24 µM"
- MOLECULE: "Cc1ccc(C)c(NC(=O)CSc2nnc([C@@H](N)Cc3ccccc3)o2)c1"
  DATA VALUE: "5.54 µM"
- MOLECULE: "O=C(CSc1ccccc1C(=O)NCc1ccccc1)NC12CC3CC(CC(C3)C1)C2"
  DATA VALUE: "9.17 µM"
- MOLECULE: "COc1ccc(N2C(=S)N=C(Nc3cccc(C)c3)C23CCCCC3)cc1"
  DATA VALUE: "771 µM"
- MOLECULE: "NC(=O)COc1ccccc1/C=C1/SC(=O)N(CC(=O)N2CCc3ccccc3C2)C1=O"
  DATA VALUE: "32 µM"
- MOLECULE: "Cc1onc(-c2ccccc2Cl)c1C(=O)NC(=S)Nc1ccc(C(C)C)cc1"
  DATA VALUE: "0.271 µM"
- MOLECULE: "O=S(=O)(Nc1nc2ccccc2nc1N1CCN(c2ccccn2)CC1)c1ccc(Cl)cc1"
  DATA VALUE: "6.8 µM"
- MOLECULE: "O=C(CN1C(=O)NC2(CCCC2)C1=O)Nc1nc(-c2ccc(F)cc2)cs1"
  DATA VALUE: "0.0699 µM"
- MOLECULE: "COc1cc(C=NNC(=O)CN(Cc2ccccc2)S(=O)(=O)c2ccc3c(c2)OCCO3)ccc1O"
  DATA VALUE: "2.79 µM"
- MOLECULE: "O=C(c1cc2c(s1)-c1ccccc1OC2)N1CCC2(CC1)OCCO2"
  DATA VALUE: "24.9 µM"
- MOLECULE: "COc1ccc(-n2cnnc2SCC(=O)Nc2cc(S(=O)(=O)N3CCCCC3)ccc2C)cc1"
  DATA VALUE: "15.1 µM"
- MOLECULE: "COc1cccc(CNC(=O)CSc2ccc(-c3cccs3)nn2)c1"
  DATA VALUE: "19.5 µM"
